Data origin: ChEMBL document CHEMBL1201862

tested on: BT-549; assay: NCI tumour cell line growth inhibition, 48 h
Active and inactive are the calls of the source. Rule as the data show it: active = GI50 up to about 1.1 µM and inactive = higher.
Measured quantity: GI50

**Query** Lab request: please report GI50 under test system BT-549 for CNC(=O)OCC1=C(COC(=O)NC)C(C)N(c2ccccc2)C1 (stereo not drawn)
**Result** 50.9 µM (inactive)

**Query** What value of GI50 on BT-549 does "Oc1ccc(NCc2cc(O)ccc2O)cc1" have?
**Result** 12.7 µM (inactive)

**Query** API: value(readout=GI50, system=BT-549) for record "Cn1cnnc1SC(F)(F)c1nc2ccccc2o1"
**Result** > 100 µM (inactive)

**Query** Quick check: GI50 on BT-549, item CCN1CCC(O)(c2ccc(Oc3ccccc3)cc2)C(C(=O)c2ccc(Oc3ccccc3)cc2)C1 (stereo not drawn) ?
**Result** 10.5 µM (inactive)

**Query** Form: Entry = CC(O)(C(=O)N(O)c1ccc(Cl)cc1)c1ccc(Cl)cc1 (stereo not drawn) | System = BT-549 | GI50 = ____
**Result** 21.6 µM (inactive)

**Query** Look up GI50 with BT-549 for this molecule: "COc1ccc(-c2cc3c(c4cc(OC)ccc24)C(=O)OC3=O)cc1"
**Result** > 100 µM (inactive)

**Query** Form field: GI50 recorded for "COP(=O)(OC)[C@H](O)[C@H]1C[C@@H]1c1ccccc1" with BT-549 (enter value)
**Result** > 100 µM (inactive)

**Query** What is its GI50 for BT-549? Entry: O=C1/C(=C\c2cccc(Oc3ccccc3)c2)S(=O)(=O)C(c2ccccc2)N1Cc1ccccc1 (stereo not drawn)
**Result** 29 µM (inactive)

**Query** Recorded GI50 for CCCNC(=O)CCC(C)[C@H]1CCC2C3C(C[C@H](OC(C)=O)[C@@]21C)[C@@]1(C)CCC2(C[C@H]1C[C@H]3OC(C)=O)OOC1(CCC(C)CC1)OO2 (stereo partly drawn) with BT-549, please?
**Result** 27.1 µM (inactive)

**Query** Checklist item: GI50 tested on BT-549, entry "Nc1c(S(=O)(=O)O)cc(Nc2cccc(S(N)(=O)=O)c2)c2c1C(=O)c1ccccc1C2=O" , value?
**Result** > 100 µM (inactive)

**Query** Find the measured GI50: item OC1(c2ccccc2)c2ccccc2N=C2NCCN21 (stereo not drawn) , target or system BT-549.
**Result** > 100 µM (inactive)

**Query** Param readout = GI50; param system = BT-549; param query = "CO[C@H]1C[C@](C)(O)Cc2cc3c(c(O)c21)C(=O)c1c(O)cc2c(c1C3=O)O[C@@H]1O[C@@]2(C)[C@H](O)[C@@H](N(C)C)[C@@H]1O" ; response: value
**Result** 2.05 µM (inactive)

**Query** Give recorded GI50 with BT-549 for the following molecule: "O=C1C(Cl)=C(N2CCC[C@H]2CO)C(=O)c2c(O)ccc(O)c21"
**Result** > 10 µM (inactive)

**Query** Request - read-out GI50 | tested on BT-549 | molecule Cc1c(Cc2ccccc2)n(C(C)OCCN(OC(=O)Oc2ccccc2)C(=O)Oc2ccccc2)c(=O)[nH]c1=O (stereo not drawn)
**Result** 17.1 µM (inactive)

**Query** Could you share what GI50 was measured for CC1OC(OC2C(CO)OC(O[C@H]3CC[C@@]4(C)C(=CC[C@H]5[C@@H]6C[C@@H]7O[C@](O)(CC[C@H](C)COC8OC(CO)C(O)C(O)C8O)[C@@H](C)[C@@H]7[C@@]6(C)CC[C@@H]54)C3)C(OC3OC(C)C(O)C(O)C3O)C2O)C(O)C(O)C1O (stereo partly drawn) , tested on BT-549?
**Result** 4.48 µM (inactive)

**Query** Identify the measured GI50 of "COc1cccc(CCCNC(=O)Cc2ccccc2CO)c1" for BT-549.
**Result** > 100 µM (inactive)

**Query** Lookup: GI50 / BT-549 / "Cc1cc(S(=O)(=O)N/C(=C(\C#N)C(=O)c2ccc(Cl)cc2)[n+]2ccc(N(C)C)cc2)c([S-])cc1Cl"
**Result** > 100 µM (inactive)

**Query** Please state recorded GI50 (tested on BT-549) of "CCCCCC#CCOC(=O)C(=[N+]=[N-])P(=O)(c1ccccc1)c1ccccc1"
**Result** > 10 µM (inactive)
